The measured values listed here are drawn from PubChem BioAssay AID588453.

measurement target: Thioredoxin reductase 1, cytoplasmic (Rattus norvegicus) (UniProt O89049)
Sequence (O89049 whole entry, looked up): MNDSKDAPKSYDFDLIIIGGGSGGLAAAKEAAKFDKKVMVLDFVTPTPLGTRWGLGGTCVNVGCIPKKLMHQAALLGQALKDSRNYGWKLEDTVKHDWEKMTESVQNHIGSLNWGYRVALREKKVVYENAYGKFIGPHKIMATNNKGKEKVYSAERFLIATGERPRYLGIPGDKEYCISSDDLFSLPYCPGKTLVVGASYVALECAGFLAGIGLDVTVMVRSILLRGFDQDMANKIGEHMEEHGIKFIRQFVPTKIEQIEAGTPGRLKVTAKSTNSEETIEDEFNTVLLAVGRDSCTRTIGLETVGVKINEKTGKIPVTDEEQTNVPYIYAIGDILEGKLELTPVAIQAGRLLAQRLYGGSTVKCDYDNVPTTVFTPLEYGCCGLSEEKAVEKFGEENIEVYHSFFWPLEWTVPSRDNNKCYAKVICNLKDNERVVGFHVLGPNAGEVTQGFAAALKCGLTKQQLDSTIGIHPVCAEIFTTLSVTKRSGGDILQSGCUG
procedure text: qHTS Assay for Inhibitors of Mammalian Selenoprotein Thioredoxin Reductase 1 (TrxR1): qHTS; note: nearly all actives have a fitted effect of over 65% in size
condition: recombinant rTrxR1, NADPH fluorescence consumption, selenite substrate; series mostly up to 114 µM
Out of some 390,000 compounds screened, about 4,000 (1%) were called active. Roughly 4% stayed inconclusive and do not appear here. Calls come from the whole dose curve; as a rule, active = well fitted inhibition curve with a large enough effect; inconclusive = small, poorly fitted or top-dose-only effect; inactive = no such curve, though single readings can be large or run the other way. The list comes from a sample in which actives are over-represented; it also holds close analogues and randomly drawn compounds.
Labels: active, inactive

# smiles, measurement target, assigned class
rows = [
    ("Cc1cccc(NC(=O)C2CCN(S(=O)(=O)c3c(C)noc3/C=C/c3ccco3)CC2)c1", "Thioredoxin reductase 1, cytoplasmic (Rattus norvegicus) (UniProt O89049)", "inactive"),
    ("C(=Nc1ccc(/C=C/c2ccnc3ccccc23)cc1)Nc1ccc(/C=C/c2ccnc3ccccc23)cc1", "Thioredoxin reductase 1, cytoplasmic (Rattus norvegicus) (UniProt O89049)", "inactive"),
    ("O=C(O)/C(=C/c1c(C(=O)O)[nH]c2cc(Cl)cc(Cl)c12)c1ccccc1", "Thioredoxin reductase 1, cytoplasmic (Rattus norvegicus) (UniProt O89049)", "inactive"),
    ("O=C1COc2ccc(-c3csc(-c4ccc(Cl)cc4)n3)cc2N1", "Thioredoxin reductase 1, cytoplasmic (Rattus norvegicus) (UniProt O89049)", "inactive"),
    ("Cc1[nH]c2ccccc2c1C(=O)C(=O)N(C)c1ccccc1", "Thioredoxin reductase 1, cytoplasmic (Rattus norvegicus) (UniProt O89049)", "inactive"),
    ("COc1cc(OC)c(OC)cc1/C=C/c1nc2ccccc2c(=O)n1-c1ccc(Br)c(C)c1", "Thioredoxin reductase 1, cytoplasmic (Rattus norvegicus) (UniProt O89049)", "inactive"),
    ("Fc1ccc(-c2ccc(-c3nn4c(-c5ccco5)nnc4s3)o2)cc1", "Thioredoxin reductase 1, cytoplasmic (Rattus norvegicus) (UniProt O89049)", "active"),
    ("Cc1cccc(NC(=O)CN2CCCN(S(=O)(=O)c3ccc(Br)s3)CC2)c1", "Thioredoxin reductase 1, cytoplasmic (Rattus norvegicus) (UniProt O89049)", "active"),
    ("COc1cc2[nH]c(C)c(CCN3CCN(c4ccccc4)CC3)c2cc1OC", "Thioredoxin reductase 1, cytoplasmic (Rattus norvegicus) (UniProt O89049)", "inactive"),
    ("CCCN(CCC)c1c([N+](=O)[O-])c(=O)oc2ccccc12", "Thioredoxin reductase 1, cytoplasmic (Rattus norvegicus) (UniProt O89049)", "inactive"),
    ("CN(C)c1nc(N)nc(CSc2ccccn2)n1", "Thioredoxin reductase 1, cytoplasmic (Rattus norvegicus) (UniProt O89049)", "inactive"),
    ("CCOC(=O)c1[nH]c(C)c(CCC(=O)N2CCN(c3ccccc3)CC2)c1C", "Thioredoxin reductase 1, cytoplasmic (Rattus norvegicus) (UniProt O89049)", "inactive"),
]

###

measurement target: Thioredoxin reductase 1, cytoplasmic (Rattus norvegicus)
procedure text: qHTS Assay for Inhibitors of Mammalian Selenoprotein Thioredoxin Reductase 1 (TrxR1): qHTS; note: nearly all actives have a fitted effect of over 65% in size
condition: recombinant rTrxR1, NADPH fluorescence consumption, selenite substrate; series mostly up to 114 µM
Description: The selenoprotein thioredoxin reductase (TrxR; EC 1.8.1.9) is a FAD containing homodimeric pyridine nucleotide-disulfide oxidoreductase with many cellular roles. Together with NADPH and its prime substrate thioredoxin (Trx), the enzyme forms the core of the Trx system. […] This BioAssay is a validation of an NADPH fluorescence-based, dual-purpose qHTS rTrxR1 assay designed to find potential inhibitors and substrates of rTrxR1. […]
Out of some 390,000 compounds screened, about 4,000 (1%) were called active. Roughly 4% stayed inconclusive and do not appear here. Calls come from the whole dose curve; as a rule, active = well fitted inhibition curve with a large enough effect; inconclusive = small, poorly fitted or top-dose-only effect; inactive = no such curve, though single readings can be large or run the other way. The list comes from a sample in which actives are over-represented; it also holds close analogues and randomly drawn compounds.
Labels: active, inactive

# compound, measurement target, assigned class
rows = [
    ("COc1ccccc1NC(=O)COC(=O)COc1ccccc1F", "Thioredoxin reductase 1, cytoplasmic (Rattus norvegicus)", "inactive"),
    ("CCOC(=O)Nc1ccc2c(c1)N(C(=O)CN1CCN3CCCC3C1)c1ccccc1CC2 (stereo unspecified)", "Thioredoxin reductase 1, cytoplasmic (Rattus norvegicus)", "inactive"),
    ("Cc1ccccc1-c1nc(CS(=O)(=O)CC(=O)N2CCc3ccccc3C2)c(C)o1", "Thioredoxin reductase 1, cytoplasmic (Rattus norvegicus)", "active"),
    ("Cc1ccc(Cl)cc1NC(=O)CCC(=O)N1CC(C)Sc2ccccc21 (stereo unspecified)", "Thioredoxin reductase 1, cytoplasmic (Rattus norvegicus)", "inactive"),
    ("O=C(c1noc2c1CCCC2)N1CCc2ccccc2C1", "Thioredoxin reductase 1, cytoplasmic (Rattus norvegicus)", "inactive"),
    ("COc1ccccc1NC(=O)N(O)C1(C#N)CCCCC1", "Thioredoxin reductase 1, cytoplasmic (Rattus norvegicus)", "inactive"),
    ("COc1ccc2c(c1)CCc1c(C(=O)N3CCCC3)noc1-2", "Thioredoxin reductase 1, cytoplasmic (Rattus norvegicus)", "active"),
    ("CCCCCCCNc1ccc(/C=C/c2ccnc3ccccc23)cc1", "Thioredoxin reductase 1, cytoplasmic (Rattus norvegicus)", "inactive"),
    ("Oc1ccc(N2CCN(C(=S)NCc3ccccc3)CC2)cc1", "Thioredoxin reductase 1, cytoplasmic (Rattus norvegicus)", "inactive"),
    ("COc1ccc(C)cc1NC(=O)COCc1cc(-c2cccs2)on1", "Thioredoxin reductase 1, cytoplasmic (Rattus norvegicus)", "inactive"),
    ("N#CCCN1CCN(S(=O)(=O)c2ccc(S(=O)(=O)N3CCCC3)cc2)CC1", "Thioredoxin reductase 1, cytoplasmic (Rattus norvegicus)", "inactive"),
    ("CN(C)S(=O)(=O)c1ccc(C(=O)N(Cc2cccnc2)c2nc3c(F)cc(F)cc3s2)cc1", "Thioredoxin reductase 1, cytoplasmic (Rattus norvegicus)", "inactive"),
    ("CCCOc1ccc(C(=O)Nc2ccc3oc(-c4cccc(Cl)c4Cl)nc3c2)cc1", "Thioredoxin reductase 1, cytoplasmic (Rattus norvegicus)", "inactive"),
    ("CC(C)[C@@H]1NC(=O)c2cc([N+](=O)[O-])cc(I)c2NCCC[C@@H](C(=O)NC(CC(=O)O)C(N)=O)NC(=O)[C@H](CO)NC1=O (stereo partly specified)", "Thioredoxin reductase 1, cytoplasmic (Rattus norvegicus)", "inactive"),
    ("CN(C(=O)CC1C(=O)NCCN1Cc1ccc2ccccc2c1)C1CCOCC1 (stereo unspecified)", "Thioredoxin reductase 1, cytoplasmic (Rattus norvegicus)", "active"),
    ("COc1ccc(CN(Cc2ccccc2)C(=O)c2ccc(O)cc2)cc1COc1ccc(NC(C)=O)cc1", "Thioredoxin reductase 1, cytoplasmic (Rattus norvegicus)", "inactive"),
    ("NC(=O)C[C@@H]1NC(=O)CNC(=O)c2cc([N+](=O)[O-])cc(I)c2NCCC(C(N)=O)NC1=O (stereo partly specified)", "Thioredoxin reductase 1, cytoplasmic (Rattus norvegicus)", "inactive"),
    ("COc1ccccc1NC(=O)c1cc(C2CC2)nc2c1c(C)nn2-c1ccc(C)cc1", "Thioredoxin reductase 1, cytoplasmic (Rattus norvegicus)", "inactive"),
    ("NC(=O)CC[C@@H]1NC(=O)[C@@H]2CCCN2C(=O)c2cc([N+](=O)[O-])cc(F)c2NCCC[C@@H](C(N)=O)NC1=O", "Thioredoxin reductase 1, cytoplasmic (Rattus norvegicus)", "active"),
    ("NS(=O)(=O)c1ccc(NC(=O)C(=O)Nc2ccc3nc4n(c(=O)c3c2)CCCCC4)cc1", "Thioredoxin reductase 1, cytoplasmic (Rattus norvegicus)", "inactive"),
    ("CCNC(=O)Cn1nc(C)n2c(cc3c(OC)cccc32)c1=O", "Thioredoxin reductase 1, cytoplasmic (Rattus norvegicus)", "inactive"),
]
